Data provenance is ChEMBL document CHEMBL5608180.

# selectivity ratio values compiled below
test: Selectivity index, ratio of IC50 for cytotoxicity against human MRC5 cells to IC50 for antiparasitic activity against trypomastigote form of Trypanosoma cruzi SOL (TcV); type: toxicity, cell-based; settings: read-out: Ratio IC50
measurement.name: selectivity ratio

>>> print(df.to_string())
                               smiles_input   measurement_name  qualifier  recorded_result
0  C[C@]12SC(c3ccc4cccnc4c3)=CC1=C1CCCC1=C1C=C(c3ccc4cccnc4c3)S[C@@]12C  selectivity ratio          =               25
1  Cc1sc(-c2cccc3cc[n+](C)cc23)cc1C1=C(c2cc(-c3cccc4cc[n+](C)cc34)sc2C)CCC1.[I-].[I-]  selectivity ratio          =             40.9
2       O=C(Cn1ccnc1[N+](=O)[O-])NCc1ccccc1  selectivity ratio          <                1
